Assay: Kinetic solubility of the compound in water
Assay type: physicochemical
Conditions: buffer
metric: Kinetic_solubility (mg/mL)

1. O=c1cc2n(cc1O)CCN(Cc1ccccc1)C2 = 0.0603

(P) O=c1cc2n(cc1O)CCN(Cc1ccc(Cl)cc1Cl)C2
(Q) Cc1cccc(C)c1CN1CCn2cc(O)c(=O)cc2C1
(R) O=c1cc2n(cc1O)CCN(Cc1ccccc1Cl)C2
(S) O=c1cc2n(cc1O)CCN(Cc1c(F)cccc1Cl)C2
Order these by Kinetic_solubility, descending, and give the full ranking. Your task in answering is to list the labels in the requested order.
S, R, P, Q

---

Test: Ratio of drug level in brain to plasma in rat at 100 mg/kg, po measured after 4 hrs
Assay type: ADME, organism-based
Details: read-out: BPR
metric: Kp at 4 h

Examples from the recorded data:
1. O=c1cc2n(cc1O)CCN(Cc1c(F)cccc1Cl)C2 = 0.53
2. O=c1cc2n(cc1O)CCN(Cc1ccc(Cl)cc1Cl)C2 = 3.77
3. O=c1cc2n(cc1O)CCN(Cc1ccccc1)C2 = 0.49

(I) O=c1cc2n(cc1O)CCN(Cc1ccccc1Cl)C2
(II) Cc1cccc(C)c1CN1CCn2cc(O)c(=O)cc2C1
# argmax over Kp at 4 h for candidates I and II Let me know the label of the one you choose.
I

---

Assay: Clearance in rat 1 mg/kg, iv or 10 mg/kg, po
Assay type: ADME, organism-based
Conditions: in vivo
metric: clearance (mL/min/kg)

1) O=c1cc2n(cc1O)CCN(Cc1ccc(Cl)cc1Cl)C2 = 138

(1) O=c1cc2n(cc1O)CCN(Cc1c(F)cccc1Cl)C2
(2) Cc1cccc(C)c1CN1CCn2cc(O)c(=O)cc2C1
(3) O=c1cc2n(cc1O)CCN(Cc1ccccc1Cl)C2
(4) O=c1cc2n(cc1O)CCN(Cc1ccccc1)C2
Could you please order the items by clearance, going from the lowest number to the highest? A ranking is expressed here by listing the labels in the requested order.
4, 3, 1, 2
(4: 32 mL/min/kg, 3: 49 mL/min/kg, 1: 87 mL/min/kg, 2: 145 mL/min/kg)

---

Experiment: Fraction unbound in rat brain
Format: ADME, tissue-based
metric: fraction unbound

1. O=c1cc2n(cc1O)CCN(Cc1ccccc1)C2 = 0.129

(1) Cc1cccc(C)c1CN1CCn2cc(O)c(=O)cc2C1
(2) O=c1cc2n(cc1O)CCN(Cc1ccc(Cl)cc1Cl)C2
(3) O=c1cc2n(cc1O)CCN(Cc1c(F)cccc1Cl)C2
(4) O=c1cc2n(cc1O)CCN(Cc1ccccc1Cl)C2
Order the entries by their reported fraction unbound, beginning at the minimum. Respond with an ordered listing of the labels, as requested.
1, 4, 2, 3

---

Test: Free drug level in rat brain at 100 mg/kg, po measured after 4 hrs
Assay type: ADME, organism-based
Conditions: in vivo
metric: Drug uptake(free) (nM)

Example cases with answers are listed next.
1) O=c1cc2n(cc1O)CCN(Cc1ccc(Cl)cc1Cl)C2 = 430
2) O=c1cc2n(cc1O)CCN(Cc1ccccc1)C2 = 564

(I) O=c1cc2n(cc1O)CCN(Cc1c(F)cccc1Cl)C2
(II) Cc1cccc(C)c1CN1CCn2cc(O)c(=O)cc2C1
(III) O=c1cc2n(cc1O)CCN(Cc1ccccc1Cl)C2
# rank by Drug uptake(free), ascending (min first) Return value: ordered labels per request.
II, III, I
(II: 16 nM, III: 285 nM, I: 493 nM)
